Molecular target: T1, Activin B (UniProt P09529 293-407)
T1 sequence (looked up): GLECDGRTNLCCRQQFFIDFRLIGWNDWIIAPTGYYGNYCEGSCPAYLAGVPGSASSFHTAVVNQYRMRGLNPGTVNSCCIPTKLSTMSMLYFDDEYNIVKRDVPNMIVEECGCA
Assay: SPR (Biacore 8K), Fc protein captured on anti-human IgG, ligand injected
So I've got a bunch of binders here, and I need their pKd values.
Give bare numbers, as −log10 of the molar value.

ActRIIB-A5 (SEQ ID NO: 123) chimera-Fc protein (Fc fusion, Tested as chimera-Fc protein; not shown: linker (if any) and Fc domain) GRGEAETRECIYYNANWELERTNQSGLERCEGEQDKRLHCYASWRNSSGTIELVKKGCWLDDINCYDRTDCVATEENPQVYFCCCEGNFCNERFTHLPEAGGPEVTYEPPPTAPT | 11.31

API: the following record is the query input.
I'd like to know its pKd. The binder in question is ActRIIA-A6 (SEQ ID NO: 108) chimera-Fc protein (Fc fusion, Tested as chimera-Fc protein; not shown: linker (if any) and Fc domain) GAILGRSETQECLFFNANWEKDRTNQTGVEPCYGDKDKRRHCFATWKNISGSIEIVKQGCWLDDINCYDRTDCVEKEENPQVYFCCCEGNMCNEKFSYFPEMEVTQPTS
10.25

// data source = patent US20250270287A1
